Target: human CCR8 (human, UniProt P51685 1-355)
Test: cell-based or functional assay
Neutralizing activity IC50 (nM), Ca2+ influx by 100 nM hCCL1 values by entry
Respond numerically; units are nM and should not be typed.

Challenge: Sample 1H4 (antibody, V domains shown, mouse hybridoma antibody, purified) VH: EVQLVESGGRLVQPKGSLKLSCAASGFTFNTYAMYWIRQAPGKGLEWVARIRSKSNNYATYYADSVKDRFTISRDDSQSMLYLQMNNLKTEDTAMYYCVRARFYYSDYGYAMDYWGQGTSVTVSS VL: DIVMTQAAPSVPVTPGESVSISCRSSKSLLHSNGNTYLYWFLQRPGQSPQLLIYRMSNLASGVPDRFSASGSGTAFTLRISRVEAEDVGVYYCMQHLEYPLTFGAGTKLELKR — what was its Neutralizing activity IC50 (nM), Ca2+ influx by 100 nM hCCL1?
Response given: 0.32

Continuing:
Challenge: # lookup: Neutralizing activity IC50 (nM), Ca2+ influx by 100 nM hCCL1 of 27G1 (antibody, V domains shown, mouse hybridoma antibody, purified) VH: EVQLVESGGRLVQPKGSLKLSCAASGFAFNTYAMYWIRQAPGKGLEWVARIRSKSNNYATYYADSVKDRFTISRDDSQSMLYLQMNNLKTEDTAMYYCVRARFYYSDYGYAMDYWGQGTSVTVSS VL: DIVMTQAAPSVPVTPGESVSISCRSSKSLLHSNGNTYLYWFLQRPGQSPQLLIYRMSNLASGVPDRFSGSGSGTAFTLRISRVEAEDVGVYYCMQHLEYPLTFGAGTKLELKR
Response given: 0.09

Challenge: # lookup: Neutralizing activity IC50 (nM), Ca2+ influx by 100 nM hCCL1 of 2C7 (antibody, V domains shown, mouse hybridoma antibody, purified) VH: QVQLKQSGPSLVQPSQSLSITCTVSGFSLTAYGVHWIRQSPGKGQEWLGVIWRGGSTDYNAAFMSRLTITKDNSKSQVFFKMNSLQADDTAIYYCAKKGGSYAMDYWGQGTSVTVSS VL: DVVLTQTPLSLPVSLGGQASISCRSSQSLVHSNGNTYLHWYLQKPGQSPKLLIYKVSNRFSGVPDRFSGSGSGTDFTLKISRVEAEDLGVYFCSQSTQVPLTFGAGTKLELKR
Response given: 0.4

Challenge: Look at this binder and give its reported Neutralizing activity IC50 (nM), Ca2+ influx by 100 nM hCCL1. 10A11 (antibody, V domains shown, mouse hybridoma antibody, purified; also called m10A11) VH: EVQLVESGGRLVQPKGSLKLSCAASGFAFNTYALYWIRQAPGKGLEWVARIRSKSNNYATYYADSVKDRFTISRDDSQSMLYLQMNNLKTEDTAMYYCVRARFYYSDYGYAMDYWGQGTSVTVSS VL: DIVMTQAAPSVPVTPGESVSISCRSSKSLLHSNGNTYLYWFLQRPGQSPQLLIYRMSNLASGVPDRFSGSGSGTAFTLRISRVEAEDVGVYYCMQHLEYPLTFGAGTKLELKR
Response given: 0.08

Challenge: For the binder shown here, 8F7 (antibody, V domains shown, mouse hybridoma antibody, purified) VH: EVQLVESGGRLVQPKRSLKLSCAASGFTFNPYAMYWIRQAPGQGLEWVARIRSKSNNYATYYADSVKDRFTISRDDSQSMLYLQMNNLKTEDTAMYYCVRGHQGTMDYWGQGTSVTVSS VL: DIVMTQAAPSVPVTPGESVSISCRSSKSLLHSNGNTYLYWFLQRPGQSPQLLTYRMSNLASGVPDRFSGSGSGTAFTLRISRVEAEDVGVYYCMQHLEYPFTFGGGTKLEIKR , give the reported Neutralizing activity IC50 (nM), Ca2+ influx by 100 nM hCCL1.
Response given: 1.56
